# tested_system: serotonin receptor (5HT3) (Mus musculus, UniProt P23979)
# Construct: Full-length cDNAs for mosquito (Anopheles gambiae) odorant receptor; expressed in transfected cells
# Sequence (P23979 24-489): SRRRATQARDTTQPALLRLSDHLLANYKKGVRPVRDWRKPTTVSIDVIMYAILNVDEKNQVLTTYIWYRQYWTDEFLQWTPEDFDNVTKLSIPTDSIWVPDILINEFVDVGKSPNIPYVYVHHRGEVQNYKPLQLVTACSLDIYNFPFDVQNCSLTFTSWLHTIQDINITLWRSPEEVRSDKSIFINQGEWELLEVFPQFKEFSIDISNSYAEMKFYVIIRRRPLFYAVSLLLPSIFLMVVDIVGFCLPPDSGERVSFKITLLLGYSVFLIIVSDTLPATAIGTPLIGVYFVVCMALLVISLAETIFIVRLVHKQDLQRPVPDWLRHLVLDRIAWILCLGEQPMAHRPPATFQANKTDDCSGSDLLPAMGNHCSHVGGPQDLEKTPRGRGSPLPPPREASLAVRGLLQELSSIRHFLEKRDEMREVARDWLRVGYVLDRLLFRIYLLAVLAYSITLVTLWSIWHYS
# procedure_details: Ca2+-imaging of stable Flip-In T-Rex cell line 5HT3
# Assay type: cell-based
# conditions_used: compound applied at 4 μM; read-out: Percent Inhibition 5HT3
# Text: Full-length cDNAs for mosquito (Anopheles gambiae) odorant receptor (OR1, OR2, OR7, OR8, OR28), and fly (Drosophila melanogaster) odorant receptor (Or47a, Or83b), mouse TRP channel (TRPM8), and mouse serotonin receptor (5HT3) were obtained and subcloned into mammalian expression vectors. […] Compounds ([…] in DMSO) were stored in 384-well plates, and last two columns (32 wells total) contained only DMSO. […] Ca^2+ increase was monitored with fluorescence at 525 nm by excitation at 485 nm.
measure: inhibition at 4 µM

INSERT INTO results (compound, measure, result) VALUES
  ('CCOC(=O)CCC(=O)N(CCc1ccccc1)CC(=O)Nc1cc(C(C)(C)C)nn1-c1ccccc1C', 'inhibition at 4 µM', '< 25%');

inhibition at 4 µM in this record for COc1ccccc1C(=O)C1CCCN(C(=O)c2cccc(N3CCOCC3)c2)C1 (stereo not drawn) : < 25%

The reported value for `COCCN(Cc1c(-c2ccccc2)noc1N(C)C1CCCCC1)C(=O)c1ccccc1OC` in terms of inhibition at 4 µM is 26 to 50%

Measured inhibition at 4 µM of `CCc1c(C(=O)NCc2cccnc2)cnn1-c1ccccc1` : < 25%

# inhibition at 4 µM of COCCCN(CC(=O)N1CCc2sccc2C1COc1cccc(OC)c1)C(=O)c1ccccc1OC (stereo not drawn) = < 25%

// inhibition at 4 µM value for `Cc1cccc(Cn2ccnc2CN(C(=O)c2ccccc2F)C2CCCCC2)c1` : < 25%

* * *

# tested_system: OR8/OR7 (Anopheles gambiae, UniProt Q7PUT5+Q7QCC7)
# Sequence (Q7QCC7 whole entry): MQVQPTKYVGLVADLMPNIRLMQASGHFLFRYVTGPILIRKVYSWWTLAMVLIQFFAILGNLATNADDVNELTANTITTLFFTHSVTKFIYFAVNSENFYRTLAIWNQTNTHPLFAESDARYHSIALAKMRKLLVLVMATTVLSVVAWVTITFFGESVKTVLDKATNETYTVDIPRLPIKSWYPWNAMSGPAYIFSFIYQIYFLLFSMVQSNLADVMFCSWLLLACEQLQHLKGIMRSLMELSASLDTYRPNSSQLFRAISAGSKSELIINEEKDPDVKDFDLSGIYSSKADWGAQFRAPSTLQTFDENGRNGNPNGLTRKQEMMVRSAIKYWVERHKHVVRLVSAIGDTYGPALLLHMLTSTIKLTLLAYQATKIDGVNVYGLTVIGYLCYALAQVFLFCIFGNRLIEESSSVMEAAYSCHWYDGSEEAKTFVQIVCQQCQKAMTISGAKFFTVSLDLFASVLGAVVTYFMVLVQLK
# Sequence (Q7PUT5 entry or part of it): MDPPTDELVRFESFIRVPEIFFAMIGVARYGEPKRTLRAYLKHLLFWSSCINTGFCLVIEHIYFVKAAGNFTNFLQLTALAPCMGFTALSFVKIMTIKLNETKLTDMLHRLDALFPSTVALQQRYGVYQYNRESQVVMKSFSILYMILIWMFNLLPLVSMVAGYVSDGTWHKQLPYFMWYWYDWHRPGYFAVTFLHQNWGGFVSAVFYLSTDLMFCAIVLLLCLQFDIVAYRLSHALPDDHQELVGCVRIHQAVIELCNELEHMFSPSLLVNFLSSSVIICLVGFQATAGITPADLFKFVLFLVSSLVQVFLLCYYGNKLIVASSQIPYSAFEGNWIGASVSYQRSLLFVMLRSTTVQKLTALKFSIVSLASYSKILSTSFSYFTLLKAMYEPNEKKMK
# procedure_details: Ca2+-imaging of stable HEK293T cell line OR8/OR7
# Assay type: cell-based
# conditions_used: HEK-293T; compound applied at 4 μM; read-out: Percent Inhibition OR8 OR7
Items are presented alongside their recorded inhibition at 4 µM.

Some molecules with known inhibition at 4 µM results, for comparison:
INSERT INTO assay_data (molecule, result) VALUES
  ('O=C1CN(S(=O)(=O)c2c(F)cc(F)cc2F)CC2c3cccc(F)c3CCN12 (centres unmarked)', '< 25%'),
  ('COCCCN(CC(=O)N1CCc2sccc2C1COc1cccc(OC)c1)C(=O)c1ccccc1OC (centres unmarked)', '51 to 74%');

Record `Fc1ccccc1/C=N/Nc1nc(N2CCCCC2)nc(N2CCOCC2)n1` , field inhibition at 4 µM: < 25%

Short answer for CCCCc1nc(CN2CCc3c([nH]c4ccccc34)C2c2cccc(OC)c2OC)c[nH]1 (centres unmarked) : inhibition at 4 µM was 26 to 50%

The molecule C=CCNC(=O)C(NC(=O)c1cccc(C)c1)C1CCN(C(=O)c2cccc(Br)c2)CC1 (centres unmarked) showed inhibition at 4 µM equal to 26 to 50%

Note to self: inhibition at 4 µM recorded for C=CCOc1cccc(C(=O)N2CCCC(C(=O)c3ccccc3OC)C2)c1 (centres unmarked) was 26 to 50%

# inhibition at 4 µM (molecule: COCCCN(CC(=O)N1CCc2sccc2C1c1ccc(OC)cc1)C(=O)C(C)(C)CCl (centres unmarked) ) is 26 to 50%

Noted for COCCCN(CC(=O)N1CCc2sccc2C1COc1cccc(OC)c1)C(=O)Cc1ccccc1 (centres unmarked) : its inhibition at 4 µM reads 26 to 50%

The recorded inhibition at 4 µM for entry `COc1ccc(C(=O)c2ccccc2)c(O)c1O` equals < 25%

Looking up `C=CCN(Cc1nccn1Cc1ccccc1C)C(=O)CC(C)C` , I see its inhibition at 4 µM listed as < 25%

Measured inhibition at 4 µM, CC(NCc1ccccc1)c1nc2ccccc2c(=O)n1-c1ccc(Cl)cc1 (centres unmarked) : < 25%

Please fill in: inhibition at 4 µM reported for O=C(NCCC(=O)N1CCOC(COCc2ccc(F)cc2Cl)C1)OCc1ccccc1 (centres unmarked) = 26 to 50%

The molecule listed as `Cc1cc(N(C)C2CCCCC2)nc(SCc2cccc(C(=O)N3CCCC3)c2)n1` has a reported inhibition at 4 µM of < 25%

Looking up Cc1ccc(-c2nnc(SCCCC(=O)N3CCN(C(=O)c4cccc(F)c4)C(C)C3)n2-c2ccc(C)cc2)cc1 (centres unmarked) , I found its inhibition at 4 µM recorded as < 25%

* * *

We begin with a simple list: items and their reported inhibition at 4 µM.
# tested_system: TRP channel (TRPM8) (Mus musculus, UniProt Q8R4D5)
# Construct: Full-length cDNAs for mosquito (Anopheles gambiae) odorant receptor (OR1, OR2, OR7, OR8, OR28), and fly (Drosophila melanogaster) odorant receptor (Or47a, Or83b), mouse TRP channel (TRPM8); expressed in transfected cells
# Sequence (Q8R4D5 whole entry): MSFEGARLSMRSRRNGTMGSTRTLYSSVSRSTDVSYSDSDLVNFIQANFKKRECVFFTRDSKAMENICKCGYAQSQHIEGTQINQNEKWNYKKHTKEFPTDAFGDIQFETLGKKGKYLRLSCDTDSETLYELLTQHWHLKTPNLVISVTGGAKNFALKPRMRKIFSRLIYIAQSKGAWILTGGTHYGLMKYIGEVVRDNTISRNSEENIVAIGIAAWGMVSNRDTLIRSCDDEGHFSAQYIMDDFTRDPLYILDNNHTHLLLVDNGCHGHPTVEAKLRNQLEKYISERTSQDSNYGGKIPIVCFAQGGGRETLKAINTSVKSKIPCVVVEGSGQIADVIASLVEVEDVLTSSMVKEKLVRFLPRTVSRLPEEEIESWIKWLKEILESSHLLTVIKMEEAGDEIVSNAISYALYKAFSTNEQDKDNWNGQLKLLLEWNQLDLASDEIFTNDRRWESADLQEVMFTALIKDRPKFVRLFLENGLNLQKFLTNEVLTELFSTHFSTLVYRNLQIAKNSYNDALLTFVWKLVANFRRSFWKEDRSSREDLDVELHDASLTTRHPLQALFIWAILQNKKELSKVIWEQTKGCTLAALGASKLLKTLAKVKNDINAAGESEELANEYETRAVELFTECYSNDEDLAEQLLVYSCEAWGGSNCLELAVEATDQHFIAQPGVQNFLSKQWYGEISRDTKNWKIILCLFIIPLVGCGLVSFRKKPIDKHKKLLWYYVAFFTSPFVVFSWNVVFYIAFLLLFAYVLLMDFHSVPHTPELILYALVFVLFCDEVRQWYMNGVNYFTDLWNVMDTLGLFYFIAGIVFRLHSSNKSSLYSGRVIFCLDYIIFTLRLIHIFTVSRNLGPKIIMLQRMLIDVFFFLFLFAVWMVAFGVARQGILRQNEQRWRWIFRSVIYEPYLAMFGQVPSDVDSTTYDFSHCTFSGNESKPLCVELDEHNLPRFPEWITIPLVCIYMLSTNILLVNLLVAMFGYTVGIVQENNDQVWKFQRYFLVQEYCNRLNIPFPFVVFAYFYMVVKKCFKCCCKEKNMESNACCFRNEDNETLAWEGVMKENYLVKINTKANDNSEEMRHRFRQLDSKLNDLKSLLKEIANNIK
# procedure_details: Ca2+-imaging of stable HEK293T cell line TRPM8
# Format: cell-based
# conditions_used: HEK-293T; compound applied at 4 μM; read-out: Percent Inhibition TRPM8

Here is how some molecules turned out for inhibition at 4 µM.
INSERT INTO results (molecule, tested_system, measure, result) VALUES
  ('CCN(CC)C(=O)Oc1ccc2c(ccn2Cc2cccc(C)c2)c1NC(=O)[C@H](C)OC(C)=O', 'TRP channel (TRPM8) (Mus musculus, UniProt Q8R4D5)', 'inhibition at 4 µM', '< 25%'),
  ('CCc1cc(N2CCCC2)nc(SCc2ccc(C(=O)N3CCOCC3)o2)n1', 'TRP channel (TRPM8) (Mus musculus, UniProt Q8R4D5)', 'inhibition at 4 µM', '26 to 50%'),
  ('CN(Cc1ccccc1)C(=O)CCC1CCN(C(=O)CCOc2ccccc2)CC1', 'TRP channel (TRPM8) (Mus musculus, UniProt Q8R4D5)', 'inhibition at 4 µM', '26 to 50%'),
  ('CCc1c(C(=O)NCc2cccnc2)cnn1-c1ccccc1', 'TRP channel (TRPM8) (Mus musculus, UniProt Q8R4D5)', 'inhibition at 4 µM', '< 25%'),
  ('COc1ccc(C(=O)c2ccccc2)c(O)c1O', 'TRP channel (TRPM8) (Mus musculus, UniProt Q8R4D5)', 'inhibition at 4 µM', '< 25%');

Looking up CCOC(=O)C(c1ccc(OC)c(OC)c1)C1C=CC(NC(=O)c2ccc3c(c2)OCO3)C1 (stereo not drawn) , I see its inhibition at 4 µM listed as < 25%

The molecule COc1cc(OC)cc(C2NC(=O)N(C)C3=C2C(=O)N(C2CCCCC2)C3)c1 (stereo not drawn) showed inhibition at 4 µM equal to < 25%

inhibition at 4 µM in this record for `Cc1ccc(-n2nc(C)c(CCC(=O)N3CCc4ccccc4C3)c2C)cc1Cl` : 26 to 50%

* * *

Here, each record is paired with measured inhibition at 4 µM data.
# tested_system: OR8/OR7 (Anopheles gambiae, UniProt Q7PUT5+Q7QCC7)
# procedure_details: Ca2+-imaging of stable HEK293T cell line OR8/OR7
# Assay type: cell-based
# conditions_used: HEK-293T; compound applied at 4 μM; read-out: Percent Inhibition OR8 OR7

INSERT INTO assay_data (compound, measure, result) VALUES
  ('C=C[C@@](C)(O)CCC1C(=C)CCC2[C@@](C)(CO)CCC[C@]12C (stereo partly drawn) [RU-0001327]', 'inhibition at 4 µM', '26 to 50%');

Moving on to the next compound.
The recorded inhibition at 4 µM for entry COc1ccc(N2CCN(C(=O)C3CC=CCC3C(=O)NC(c3ccccc3)c3ccccn3)CC2)cc1 (stereo not drawn) [RU-0026507] equals < 25%

* * *

# tested_system: TRP channel (TRPM8) (Mus musculus)
# Construct: Full-length cDNAs for mosquito (Anopheles gambiae) odorant receptor (OR1, OR2, OR7, OR8, OR28), and fly (Drosophila melanogaster) odorant receptor (Or47a, Or83b), mouse TRP channel (TRPM8); expressed in transfected cells
# procedure_details: Ca2+-imaging of stable HEK293T cell line TRPM8
# Format: cell-based
# conditions_used: HEK-293T; compound applied at 4 μM; read-out: Percent Inhibition TRPM8
measure: inhibition at 4 µM

Previously resolved entries follow.
INSERT INTO results (compound, result) VALUES
  ('CCOC(=O)c1c(NC(C)=O)c(-c2ccc(OC)cc2)cn1Cc1ccccc1', '< 25%'),
  ('Cc1ccc(CN(CCc2ccccc2)C(=O)CN(C(=O)NC(C)(C)C)C(C)C)o1', '< 25%'),
  ('CCN(CC)c1onc(-c2ccccc2)c1CN(CC1CCCO1)C(=O)c1ccco1 (stereo not shown)', '26 to 50%'),
  ('COCCCN(CC(=O)N1CCc2sccc2C1COc1cccc(OC)c1)C(=O)c1ccccc1OC (stereo not shown)', '26 to 50%'),
  ('COCCN(Cc1c(-c2ccccc2)noc1N(C)C1CCCCC1)C(=O)c1ccccc1OC', '< 25%'),
  ('O=C(c1ccco1)N(Cc1ccco1)Cc1nccn1Cc1ccccc1F', '< 25%');

inhibition at 4 µM in this record for O=C(Cc1cccc(F)c1)N1CCOC(COCc2c(Cl)cccc2Cl)C1 (stereo not shown) : < 25%

Values from patent US20130324522A1
